target: human Retinoid X Receptor beta (RXRb), RXRB (gene 6257); assay: ATG_RXRb_TRANS: Attagene TRANS-FACTORIAL HepG2 Assay for human Retinoid X Receptor beta (RXRb) (AID 2283013)
Results filed as inconclusive are left out. Activity calls are given as the source filed them. The calls were made as follows: active = hit-call score of the fitted dose curve at least 0.9, where 1 is the maximum; inconclusive = response in the unintended direction; inactive = score below 0.9.
measured_metric: AC50

{"compound": "CCCCCCCCCCCCSC", "AC50": "100 µM (active)"}
{"compound": "CCc1c(C)cc(N)c(CC)c1N", "AC50": "inactive"}
{"compound": "C=C(C)C(=O)OCc1ccccc1", "AC50": "inactive"}
{"compound": "CCn1c2ccccc2c2cc(N)ccc21", "AC50": "14.3 µM (active)"}
{"compound": "CC1=CCC2C(C1)C2(C)C (stereo not drawn)", "AC50": "inactive"}
{"compound": "Nc1cc([N+](=O)[O-])ccc1Cl", "AC50": "inactive"}
{"compound": "CC(=O)c1c(C)cc(C(C)(C)C)cc1C", "AC50": "31.4 µM (active)"}
{"compound": "Nc1ccc(S(=O)(=O)O)c(N)c1", "AC50": "inactive"}

Report AC50 for every entry below.
1. CC(CCO)CCc1ccccc1 (stereo not drawn)
2. CC(C)(C)c1cc(CCC(=O)NN)cc(C(C)(C)C)c1O
3. O=C(O)c1cn(-c2ccc(F)cc2)c2cc(N3CCNCC3)c(F)cc2c1=O
4. CNC[C@H](O)c1cccc(O)c1
5. COc1cc(C(C)(C)C)c(O)c(C(C)(C)C)c1

["inactive", "inactive", "inactive", "33.9 µM (active)", "0.745 µM (active)"]
